# Percent remaining monomer listing for each entry below
- ASSAY TEXT: Hydrolytic degradation kinetics of neat monomers by 1H NMR
- Format: physicochemical
- STUDY CONDITIONS: day 4; 50 mM monomer, aqueous pH=1, 37° C.

Examples with answers:
>>> df
                                   molecule  value_measured
0  C=CC(=O)N(C)CCN(CCN(C)C(=O)C=C)CCN(C)C(=O)C=C     99.2 ± 0.9%
1        C=CC(=O)N(C)CCCN(C)CCCN(C)C(=O)C=C    100.0 ± 0.0%

// Percent remaining monomer lookup, key: C=C(C)C(=O)OCCO [HEMA, 2-hydroxyethyl methacrylate, reference compound]
76.5 ± 0.01%

// Percent remaining monomer lookup, key: C=CC(=O)NN1CCCN(NC(=O)C=C)CC1
99.8 ± 0.2%

----------
# Percent remaining monomer listing for each entry below
- ASSAY TEXT: Hydrolytic degradation kinetics of neat monomers by 1H NMR
- Assay type: physicochemical
- STUDY CONDITIONS: day 30; 50 mM monomer, aqueous pH=1, 37° C.
Report the figure in % without appending any unit label.

Examples with answers:
>>> print(df.to_string())
                                   molecule  value_measured
0  C=CC(=O)NN1CCCN(NC(=O)C=C)CC1 [BAADA, N,N′-bis(acrylamido) 1,4-diazepane]            98.9
1  C=C(C)C(=O)OCCO [HEMA, 2-hydroxyethyl methacrylate, reference compound]            10.6
2        C=CC(=O)N(C)CCCN(C)CCCN(C)C(=O)C=C            98.7

// Percent remaining monomer lookup, key: C=CC(=O)N(C)CCN(CCN(C)C(=O)C=C)CCN(C)C(=O)C=C
93.7

----------
# Percent remaining monomer listing for each entry below
- ASSAY TEXT: Hydrolytic degradation kinetics of neat monomers by 1H NMR
- Format: physicochemical
- STUDY CONDITIONS: day 3; 50 mM monomer, aqueous pH=1, 37° C.
Report the figure in % without appending any unit label.

Examples with answers:
                                   compound  value_measured
0             C=CC(=O)NN1CCCN(NC(=O)C=C)CC1           100.0
1        C=CC(=O)N(C)CCCN(C)CCCN(C)C(=O)C=C           100.0
2  C=C(C)C(=O)OCCO [HEMA, 2-hydroxyethyl methacrylate, reference compound]            81.3

Field: next compound
// Percent remaining monomer lookup, key: C=CC(=O)N(C)CCN(CCN(C)C(=O)C=C)CCN(C)C(=O)C=C
99.3

----------
# Percent remaining monomer listing for each entry below
- ASSAY TEXT: Hydrolytic degradation kinetics of neat monomers by 1H NMR
- Format: physicochemical
- STUDY CONDITIONS: day 0; 50 mM monomer, aqueous pH=1, 37° C.
- Procedure: Neat monomers were subject to the hydrolytic degradation kinetics assay. An aqueous solution (pH=1) was prepared using HPLC grade water and adjusted using 1.0 M HCI. A 50 mM solution of each monomer (n=3) was prepared using 1.0 mL of the acidic aqueous solution. A capillary tube was filled with a 50 mM solution of tetramethylammonium bromide dissolved in D2O and flame sealed. […] After the initial reading, the NMR tubes were flame sealed and incubated at 37° C. […]
Report the figure in % without appending any unit label.

Examples with answers:
In [3]: df
Out[3]:
                                   compound       experimental_readout  value_measured
0  C=CC(=O)N(C)CCN(CCN(C)C(=O)C=C)CCN(C)C(=O)C=C  Percent remaining monomer           100.0
1  C=C(C)C(=O)OCCO [HEMA, 2-hydroxyethyl methacrylate, reference compound]  Percent remaining monomer            99.2
2        C=CC(=O)N(C)CCCN(C)CCCN(C)C(=O)C=C  Percent remaining monomer           100.0

Field: next compound
// Percent remaining monomer lookup, key: C=CC(=O)NN1CCCN(NC(=O)C=C)CC1
100.0

Numbers sourced from patent US20240052079A1.
